Target: HIV-1 RT M41L/L210W/T215Y (Human immunodeficiency virus type 1 group M subtype B, UniProt P03366, L809W/M640L/T814Y)
Construct: His6 (C); made in house; host or cells: E. coli XL1 Blue
Experiment: Inhibition constants under steady-state nucleotide incorporation conditions
Format: biochemical
Details: M41L/L210W/T215Y RT, competition with dATP, template-primer D38T/25PGA; read-out: Ki(Tenofovir-DP)
propertyName: pKi
Answers are plain numbers, as −log10 of the molar value.

Dear colleague, I am looking for the recorded pKi of the following molecule: CC(Cn1cnc2c(N)ncnc21)OCP(=O)(O)OP(=O)(O)OP(=O)(O)O (stereo in doubt) [Tenofovir-DP, tenofovir diphosphate]
5.58

---

Test system: wild-type HXB2 virus carrying the RT sequence of BH10
Assay: Phenotypic drug susceptibility of recombinant HIV-1 in MT-4 cells (tetrazolium-based colorimetric method)
Assay type: cell-based
Conditions: WT virus, average ± SD of at least three tests
propertyName: IC50 (nM)
Numbers only, in nM.

Can you look up IC50 on wild-type HXB2 virus carrying the RT sequence of BH10 for CC(C)OC(=O)OCOP(=O)(CO[C@H](C)Cn1cnc2c(N)ncnc21)OCOC(=O)OC(C)C.O=C(O)/C=C/C(=O)O [Tenofovir, tenofovir disoproxil fumarate] ?
6.7

---

Target: HIV-1 RT M41L/L210W/T215Y/R284K (Human immunodeficiency virus type 1 group M subtype B, UniProt P03366, L809W/M640L/R883K/T814Y)
Construct: His6 (C); made in house; host or cells: E. coli XL1 Blue
Assay: Inhibition constants under steady-state nucleotide incorporation conditions
Assay type: biochemical
propertyName: Ki

Request the reported Ki associated with Cc1cn([C@H]2C[C@H](N=[N+]=[N-])[C@@H](CO[P@](=O)(O)O[P@](=O)(O)OP(=O)(O)O)O2)c(=O)[nH]c1=O [AZTTP]
2320 nM

---

Test system: HIV-1 construct with RT M41L/L210W/T215Y
Test: Phenotypic drug susceptibility of recombinant HIV-1 in MT-4 cells (tetrazolium-based colorimetric method)
Assay type: cell-based
Settings: M41L/L210W/T215Y virus, average ± SD of at least three tests
propertyName: IC50 (nM)
One number for each entry, in nM.

Recorded IC50 for CC(C)OC(=O)OCOP(=O)(CO[C@H](C)Cn1cnc2c(N)ncnc21)OCOC(=O)OC(C)C.O=C(O)/C=C/C(=O)O [Tenofovir, tenofovir disoproxil fumarate] with HIV-1 construct with RT M41L/L210W/T215Y, please?
11
